Target: Protease (Human immunodeficiency virus 1, UniProt Q9YQ12)
Sequence (Q9YQ12 whole entry): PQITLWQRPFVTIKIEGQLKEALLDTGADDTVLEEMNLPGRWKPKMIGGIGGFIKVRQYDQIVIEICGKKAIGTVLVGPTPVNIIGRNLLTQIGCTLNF
Hi there, I'd appreciate the recorded IC50 for every entry that follows.
Please reply with the bare figure in nM and do not write the unit itself.

Data point: `CC(C)[C@H](NC(=O)CCS(=O)(=O)C(C)(C)C)C(=O)N[C@@H](Cc1ccccc1)[C@@H](O)[C@H](O)[C@H](Cc1ccccc1)NC(=O)[C@@H](NC(=O)CCS(=O)(=O)C(C)(C)C)C(C)C` ; IC50 = 3.98

# IC50 (molecule: `CC(C)(C)S(=O)(=O)C[C@@H](Cc1cccc2ccccc12)C(=O)N[C@H](C(=O)N[C@@H](Cc1ccccc1)[C@@H](O)[C@H](O)[C@H](Cc1ccccc1)NC(=O)[C@@H](NC(=O)[C@H](Cc1cccc2ccccc12)CS(=O)(=O)C(C)(C)C)C1CCCCC1)C1CCCCC1` ) is 1.7

Item: `CC(C)[C@H](NC(=O)[C@H](Cc1cccc2ccccc12)CS(=O)(=O)C(C)(C)C)C(=O)N[C@@H](CCc1ccccc1)[C@@H](O)[C@H](O)[C@H](CCc1ccccc1)NC(=O)[C@@H](NC(=O)[C@H](Cc1cccc2ccccc12)CS(=O)(=O)C(C)(C)C)C(C)C` | IC50: 363

// field: IC50; key: `CC(C)[C@H](NC(=O)OCc1ccccc1)C(=O)N[C@@H](Cc1ccccc1)[C@@H](O)[C@H](O)[C@H](Cc1ccccc1)NC(=O)[C@@H](NC(=O)OCc1ccccc1)C(C)C` ; value = 2

get_value(item= `CCCCC[C@H](NC(=O)[C@@H](NC(=O)[C@H](Cc1cccc2ccccc12)CS(=O)(=O)C(C)(C)C)C(C)C)[C@@H](O)[C@H](O)[C@@H](CCCCC)NC(=O)[C@H](NC(=O)[C@H](Cc1cccc2ccccc12)CS(=O)(=O)C(C)(C)C)C(C)C` , readout=IC50) returns 1

According to the records, this molecule `CC(C)[C@H](NC(=O)[C@@H](O)Cc1ccccc1)C(=O)N[C@@H](Cc1ccccc1)[C@@H](O)[C@H](O)[C@H](Cc1ccccc1)NC(=O)[C@@H](NC(=O)[C@@H](O)Cc1ccccc1)C(C)C` displays IC50 of 21.9

Record summary for `CC(C)[C@H](NC(=O)[C@H](Cc1cccc2ccccc12)CS(=O)(=O)C(C)(C)C)C(=O)N[C@@H](Cc1ccc(O)cc1)[C@@H](O)[C@H](O)[C@H](Cc1ccc(O)cc1)NC(=O)[C@H](NC(=O)[C@H](Cc1cccc2ccccc12)CS(=O)(=O)C(C)(C)C)C(C)C` : reported IC50 = 2.88

// CC(C)[C@H](NC(=O)N(C)Cc1ccccn1)C(=O)N[C@@H](Cc1ccccc1)C(O)C(O)[C@H](Cc1ccccc1)NC(=O)[C@@H](NC(=O)N(C)Cc1ccccn1)C(C)C (single isomer, unassigned) : IC50 value = 15.1

Looking up `CC(C)[C@H](NC(=O)[C@H](Cc1ccncc1)CS(=O)(=O)C(C)(C)C)C(=O)N[C@@H](Cc1ccccc1)[C@@H](O)[C@H](O)[C@H](Cc1ccccc1)NC(=O)[C@@H](NC(=O)[C@H](Cc1ccncc1)CS(=O)(=O)C(C)(C)C)C(C)C` , I found its IC50 recorded as 0.794

Where these numbers come from: ChEMBL document CHEMBL1155285
